# Tested on: SW872
# assayMethodText: relative viability vs DMSO control (72 h) (fraction); higher = more viable cells
# protocolConditions: 1.111 µM
Counter-ions that a name gives are not always drawn.
Please map values of relative viability to classes as shown: 0 (below 0.6), 1 (0.6 to below 1), 2 (1 or more)

[
  {
    "compound": "O=C(Nc1cnn2ccc(N3CCC[C@@H]3c3cc(F)ccc3F)nc12)N1CC[C@H](O)C1 [Larotrectinib]",
    "systemUnderTest": "SW872",
    "classAssignment": 2
  },
  {
    "compound": "C[C@@H](c1ccc2nccn2c1)n1nnc2ncc(-c3cnn(C)c3)nc21 [Volitinib]",
    "systemUnderTest": "SW872",
    "classAssignment": 2
  },
  {
    "compound": "N#CC[C@H](C1CCCC1)n1cc(-c2ncnc3[nH]ccc23)cn1 [Ruxolitinib]",
    "systemUnderTest": "SW872",
    "classAssignment": 1
  },
  {
    "compound": "CC(C)NC(=O)C1CCC(n2c(NC(=O)c3ccc(F)cc3)nc3ccc(CN4CCC(C(C)(C)O)CC4)cc32)CC1 (centres undefined) [Belizatinib]",
    "systemUnderTest": "SW872",
    "classAssignment": 0
  },
  {
    "compound": "COc1cccc2c1C(=O)c1c(O)c3c(c(O)c1C2=O)C[C@@](O)(C(=O)CO)C[C@@H]3O[C@H]1C[C@H](N)[C@H](O)[C@H](C)O1 [Doxorubicin Hydrochloride]",
    "systemUnderTest": "SW872",
    "classAssignment": 0
  },
  {
    "compound": "Cn1cc(-c2cc3c(N4CCN(c5ncc([C@@](C)(N)c6ccc(F)cc6)cn5)CC4)ncnn3c2)cn1 [Avapritinib]",
    "systemUnderTest": "SW872",
    "classAssignment": 1
  },
  {
    "compound": "COc1cc2nccc(Oc3ccc(NC(=O)Nc4cc(C)on4)c(Cl)c3)c2cc1OC [Tivozanib]",
    "systemUnderTest": "SW872",
    "classAssignment": 2
  },
  {
    "compound": "COc1c(OCCCN2CCOCC2)ccc2c1N=C(NC(=O)c1cnc(N)nc1)N1CCN=C21 [Copanlisib]",
    "systemUnderTest": "SW872",
    "classAssignment": 0
  },
  {
    "compound": "Nc1cc(C(F)(F)F)c(-c2cc(N3CCOCC3)nc(N3CCOCC3)n2)cn1 [Buparlisib]",
    "systemUnderTest": "SW872",
    "classAssignment": 0
  }
]

Moving on to the next compound.
Input: Hey, which category is CC(=O)Nc1cccc(-n2c(=O)n(C3CC3)c(=O)c3c(Nc4ccc(I)cc4F)n(C)c(=O)c(C)c32)c1 [Trametinib] in, do you know?
Output: 0
